# tgt: UniProt:P08684
# Sequence (P08684 whole entry): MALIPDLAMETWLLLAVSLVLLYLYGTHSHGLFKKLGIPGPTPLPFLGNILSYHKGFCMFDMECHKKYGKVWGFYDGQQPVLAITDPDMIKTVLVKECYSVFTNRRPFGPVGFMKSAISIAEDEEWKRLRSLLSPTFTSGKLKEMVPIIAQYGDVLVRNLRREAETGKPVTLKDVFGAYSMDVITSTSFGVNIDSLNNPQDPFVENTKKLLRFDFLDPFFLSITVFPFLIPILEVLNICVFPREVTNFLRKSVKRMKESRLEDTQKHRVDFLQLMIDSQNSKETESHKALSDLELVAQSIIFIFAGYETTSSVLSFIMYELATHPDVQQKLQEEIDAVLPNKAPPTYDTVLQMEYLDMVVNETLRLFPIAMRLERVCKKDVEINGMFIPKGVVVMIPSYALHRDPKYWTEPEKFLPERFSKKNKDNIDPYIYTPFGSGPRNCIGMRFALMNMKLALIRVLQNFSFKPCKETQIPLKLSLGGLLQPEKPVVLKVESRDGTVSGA
# assayRemarks: Inhibition of recombinant human CYP3A4 expressed in baculovirus infected insect cell microsomes at 1 uM relative to control
# Assay type: ADME
experimentalReadout: inhibition at 1 µM (%)
Write the answer as a number in %, unit excluded.

Task item: Would you mind telling me what inhibition at 1 µM value was observed for "COc1c(Cl)cc(-c2ccc(C(=O)c3c(F)ccc(O)c3F)s2)cc1Cl" ?
Reply: 36

====

# tgt: UniProtKB P05177
# Sequence (P05177 whole entry): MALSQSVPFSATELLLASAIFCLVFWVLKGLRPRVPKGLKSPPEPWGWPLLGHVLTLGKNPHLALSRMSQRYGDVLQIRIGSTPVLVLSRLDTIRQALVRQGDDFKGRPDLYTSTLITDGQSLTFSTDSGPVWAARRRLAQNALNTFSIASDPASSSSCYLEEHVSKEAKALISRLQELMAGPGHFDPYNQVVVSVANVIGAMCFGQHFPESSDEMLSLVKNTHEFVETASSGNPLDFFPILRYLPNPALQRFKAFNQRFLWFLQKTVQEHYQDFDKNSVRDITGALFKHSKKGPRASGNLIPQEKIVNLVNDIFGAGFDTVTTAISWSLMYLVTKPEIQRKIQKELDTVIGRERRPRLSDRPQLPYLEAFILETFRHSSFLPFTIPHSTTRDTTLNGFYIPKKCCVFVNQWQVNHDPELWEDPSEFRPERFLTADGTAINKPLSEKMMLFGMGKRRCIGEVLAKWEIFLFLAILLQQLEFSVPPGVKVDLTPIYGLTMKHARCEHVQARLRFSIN
# assayRemarks: Inhibition of recombinant human CYP1A2 expressed in baculovirus infected insect cell microsomes at 1 uM relative to control
# Format: ADME
experimentalReadout: inhibition at 1 µM (%)
State the answer as a number, implicitly in %.

Task item: May I ask what inhibition at 1 µM has been recorded for "COc1c(Cl)cc(-c2ccc(C(=O)c3c(F)ccc(O)c3F)s2)cc1Cl" ?
Reply: 11

====

# tgt: 17-beta-hydroxysteroid dehydrogenase type 1 (Homo sapiens)
# Sequence (P14061 whole entry): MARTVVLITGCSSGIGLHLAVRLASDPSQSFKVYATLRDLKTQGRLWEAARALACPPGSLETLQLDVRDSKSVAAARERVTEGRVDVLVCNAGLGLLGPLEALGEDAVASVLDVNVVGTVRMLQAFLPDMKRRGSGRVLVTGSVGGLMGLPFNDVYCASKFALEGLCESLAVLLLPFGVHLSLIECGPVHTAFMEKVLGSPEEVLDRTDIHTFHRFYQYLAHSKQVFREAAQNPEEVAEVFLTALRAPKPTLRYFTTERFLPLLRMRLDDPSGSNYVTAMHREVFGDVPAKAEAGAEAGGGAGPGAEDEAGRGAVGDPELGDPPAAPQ
I'd be grateful if you could share measured IC50 for these entries.
I only need the number, in nM, no unit after it.

Task item: Given the entry "COc1ccc(-c2ccc(C(=O)c3c(F)ccc(O)c3F)s2)cc1S(=O)(=O)N1CCOCC1" , what IC50 was observed with 17-beta-hydroxysteroid dehydrogenase type 1 (Homo sapiens)?
Reply: 130

Task item: Input "O=C(c1ccc(-c2ccc(O)cc2)s1)c1c(F)ccc(O)c1F"
Reply: 3

Task item: Now this one: "O=C(c1ccc(-c2cccnc2)s1)c1c(F)ccc(O)c1F"
Reply: 27

Task item: And then "O=C(c1ccc(-c2ccc(F)cc2F)s1)c1cccc(O)c1F" , what is it?
Reply: 47

Task item: Quick one: "O=C(c1ccc(-c2ccccc2)s1)c1c(F)ccc(O)c1F"
Reply: 11

Task item: How about this compound: "NS(=O)(=O)c1cccc(-c2ccc(C(=O)c3c(F)ccc(O)c3F)s2)c1"
Reply: 55

Task item: Queued: "O=C(c1ccc(-c2ccncc2)s1)c1c(F)ccc(O)c1F"
Reply: 150

Data provenance is ChEMBL document CHEMBL3994586.
